Molecular target: T1, CD59 (immobilized for SPR), P13987
T1 chain: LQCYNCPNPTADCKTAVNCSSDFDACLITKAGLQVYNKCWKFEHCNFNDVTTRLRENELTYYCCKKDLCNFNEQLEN
Experiment: SPR
Conditions: chain shown with the change; n = 1; parent: est. 8.0; read off a plot
endpoint: other: pKD (-Log10(KD))
One number for each entry.

>>> df
                        binder  numeric_result
0   YSWTWGNRASVRGC [CP-06 S9A]             7.7
1   YSWTWGNASSVRGC [CP-06 R8A]             7.8
2   YSWAWGNRSSVRGC [CP-06 T4A]             7.8
3   YSWTAGNRSSVRGC [CP-06 W5A]             6.7
4  YSWTWGNRSSVAGC [CP-06 R12A]             7.1

Now let's try a different one.
Q. Query (binder): YSWTWGNRSSARGC [CP-06 V11A] ; field requested: other: pKD (-Log10(KD))
A. 7.6
